- experimental-target: mAChR M1 (UniProt P11229)
- Sequence (P11229 1-460): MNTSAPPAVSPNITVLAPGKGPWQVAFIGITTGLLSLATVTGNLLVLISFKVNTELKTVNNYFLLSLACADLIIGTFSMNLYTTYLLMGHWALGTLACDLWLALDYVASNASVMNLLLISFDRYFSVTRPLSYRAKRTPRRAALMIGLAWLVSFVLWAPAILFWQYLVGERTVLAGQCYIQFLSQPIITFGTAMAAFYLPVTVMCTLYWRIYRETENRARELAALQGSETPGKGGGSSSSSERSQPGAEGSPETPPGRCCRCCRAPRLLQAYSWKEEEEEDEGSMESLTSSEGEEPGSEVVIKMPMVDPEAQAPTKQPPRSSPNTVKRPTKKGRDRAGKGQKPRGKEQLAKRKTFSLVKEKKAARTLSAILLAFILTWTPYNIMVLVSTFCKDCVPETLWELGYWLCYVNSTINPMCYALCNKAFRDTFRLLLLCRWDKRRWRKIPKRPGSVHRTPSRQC
- experiment: mAChR M1 cell-based functional assay (calcium mobilization, potentiation of EC20 acetylcholine response)
- measurement-parameters: % ACh maximum at 30 μM
assay-endpoint: Emax (%)

Known results for molecules:
- Cn1cc(-c2ccc(CN3C(=O)C4(CCN(C5CNC5)C4)c4ccccc43)c(F)c2)cn1 (stereo not shown): 58
- CC1CCCCC1N1CCC2(C1)C(=O)N(Cc1ccc(-c3cnn(C)c3)cc1F)c1ccccc12 (stereo not shown): 39

(P) CC(=O)N1CCC2(C1)C(=O)N(Cc1ccc(-c3cnn(C)c3)cc1F)c1ccccc12 (stereo not shown)
(Q) Cn1cc(-c2ccc(CN3C(=O)C4(CCN(Cc5ccccc5)C4)c4ccccc43)c(F)c2)cn1 (stereo not shown)
Qu. Input pair: P , Q . Output: entry with lower Emax. Write down the label attached to your selection.
Ans. Q
(Q: 36%, P: 54%)
